Study target: KDM5A (Homo sapiens, UniProt P29375)
Construct: Full length recombinant Flag tagged KDM5A protein was purified from Sf9 insect cells; Flag; made in house; host or cells: Sf9 insect cells
Sequence (P29375 whole entry): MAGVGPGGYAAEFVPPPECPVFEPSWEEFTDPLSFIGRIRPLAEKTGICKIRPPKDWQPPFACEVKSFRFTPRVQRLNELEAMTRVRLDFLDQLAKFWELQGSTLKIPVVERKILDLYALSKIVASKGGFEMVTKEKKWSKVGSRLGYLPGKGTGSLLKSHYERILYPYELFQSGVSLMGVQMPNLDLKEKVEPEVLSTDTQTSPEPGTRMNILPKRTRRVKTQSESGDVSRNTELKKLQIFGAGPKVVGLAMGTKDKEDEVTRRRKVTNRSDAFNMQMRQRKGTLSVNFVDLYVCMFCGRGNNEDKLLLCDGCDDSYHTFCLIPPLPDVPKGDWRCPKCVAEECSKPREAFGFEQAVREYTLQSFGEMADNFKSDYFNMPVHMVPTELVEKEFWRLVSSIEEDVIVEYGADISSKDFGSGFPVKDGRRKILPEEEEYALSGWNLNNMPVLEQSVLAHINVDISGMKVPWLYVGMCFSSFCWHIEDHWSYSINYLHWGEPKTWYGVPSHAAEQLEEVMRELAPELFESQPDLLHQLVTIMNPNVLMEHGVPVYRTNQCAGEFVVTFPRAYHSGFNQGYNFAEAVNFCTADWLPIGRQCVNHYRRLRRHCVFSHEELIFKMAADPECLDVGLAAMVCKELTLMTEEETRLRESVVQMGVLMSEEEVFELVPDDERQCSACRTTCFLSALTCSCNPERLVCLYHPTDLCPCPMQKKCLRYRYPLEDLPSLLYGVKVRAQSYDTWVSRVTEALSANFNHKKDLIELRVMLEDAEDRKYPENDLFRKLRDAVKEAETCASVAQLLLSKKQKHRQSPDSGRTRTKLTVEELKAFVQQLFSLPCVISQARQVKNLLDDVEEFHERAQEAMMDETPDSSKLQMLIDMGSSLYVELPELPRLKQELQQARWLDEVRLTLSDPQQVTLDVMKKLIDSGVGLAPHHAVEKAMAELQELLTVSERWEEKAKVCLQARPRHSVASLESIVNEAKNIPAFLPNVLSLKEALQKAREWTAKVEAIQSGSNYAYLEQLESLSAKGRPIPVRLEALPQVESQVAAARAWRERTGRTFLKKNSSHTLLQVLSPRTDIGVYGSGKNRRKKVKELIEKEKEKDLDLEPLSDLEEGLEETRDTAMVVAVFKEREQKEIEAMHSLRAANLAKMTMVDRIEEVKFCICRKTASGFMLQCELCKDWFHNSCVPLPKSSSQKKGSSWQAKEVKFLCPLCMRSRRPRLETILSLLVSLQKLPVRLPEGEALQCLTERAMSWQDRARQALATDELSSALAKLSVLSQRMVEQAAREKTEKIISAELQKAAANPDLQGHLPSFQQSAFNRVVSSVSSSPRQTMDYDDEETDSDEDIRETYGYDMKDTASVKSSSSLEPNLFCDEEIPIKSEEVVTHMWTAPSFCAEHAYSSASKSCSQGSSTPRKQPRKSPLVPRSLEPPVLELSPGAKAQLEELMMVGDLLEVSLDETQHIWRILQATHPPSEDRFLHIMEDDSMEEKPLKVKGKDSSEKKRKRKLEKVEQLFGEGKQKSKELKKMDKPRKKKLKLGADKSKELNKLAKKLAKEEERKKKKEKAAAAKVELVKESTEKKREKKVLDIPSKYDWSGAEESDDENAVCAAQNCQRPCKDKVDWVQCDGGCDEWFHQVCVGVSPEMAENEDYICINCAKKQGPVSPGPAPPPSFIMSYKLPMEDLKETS
Test details: KDM5A Demethylase Assay (MassSpec Assay-A)
Type: biochemical
Details: full length recombinant Flag tagged KDM5A, 20 nM; MassSpec readout; biotinylated H3K9me1 peptide 4.0 μM; read-out: A KDM5A MS (IC50)
This section presents molecules with their documented pIC50 values.
Reminder that pIC50 is minus the log10 of a molar concentration.

Sample records with pIC50:
INSERT INTO assay_data (molecule, number) VALUES
  ('CCc1c(C)[nH]c2c(-c3cnn(-c4ncccc4C)c3)cnn2c1=O [Example 67]', 6.44),
  ('CCc1c(C)[nH]c2c(-c3cnn(-c4cnccn4)c3)cnn2c1=O [Example 72]', 7.12),
  ('CCc1c(C)[nH]c2c(-n3cnc(C(N)=O)c3)cnn2c1=O [Example 55]', 7.02),
  ('CCc1c(C)[nH]c2c(-n3ccnc3C)cnn2c1=O [Example 77]', 5.47),
  ('CCc1c(-c2ccccc2)[nH]c2c(-n3cnc(-c4ccccn4)c3)cnn2c1=O [Example 47]', 6.24);

Then there is this molecule:
Inquiry: Which measured pIC50 value corresponds to CCc1c(C)[nH]c2c(-c3cnn(-c4cc(C)ccn4)c3)cnn2c1=O [Example 71] ?
Reply text: 7.58

---

Study target: KDM5A (Homo sapiens)
Construct: Full length recombinant Flag tagged KDM5A protein was purified from Sf9 insect cells; Flag; made in house; host or cells: Sf9 insect cells
Test details: KDM5A Demethylase Assay (TR-FRET Assay-B)
Type: biochemical
Details: full length recombinant Flag tagged KDM5A, 2 nM, TrisCl pH 7.4, 3.0 μM α-ketoglutarate, read-out: B KDM5A HTRF (IC50)
This section presents molecules with their documented IC50 values.

INSERT INTO results (smiles_code, result) VALUES
  ('CCc1c(C)[nH]c2c(-c3cnn(-c4ccc(C)cn4)c3)cnn2c1=O', '5.1 nM'),
  ('Cc1[nH]c2c(-c3cnn(-c4ncccn4)c3)cnn2c(=O)c1C(C)C', '5.7 nM'),
  ('CCc1c(C)[nH]c2c(-c3cnn(-c4ccc(CO)cn4)c3)cnn2c1=O', '31.3 nM'),
  ('CCc1c(C)[nH]c2c(-c3cnn(-c4ncc(N(C)C)cn4)c3)cnn2c1=O', '60.3 nM');

Then there is this molecule:
Inquiry: Which measured IC50 value corresponds to Cc1[nH]c2c(-c3cnn(-c4ccc(CO)cn4)c3)cnn2c(=O)c1C(C)C ?
Reply text: 6.6 nM

---

This section presents molecules with their documented IC50 values.
Study target: KDM5A (Homo sapiens, UniProt P29375)
Construct: Full length recombinant Flag tagged KDM5A protein was purified from Sf9 insect cells; Flag; made in house; host or cells: Sf9 insect cells
Test details: KDM5A Demethylase Assay (TR-FRET Assay-C)
Type: biochemical
Details: full length recombinant Flag tagged KDM5A, 2 nM, HEPES pH 7.0, 1 μM α-ketoglutarate, read-out: C KDM5A HTRF (IC50)
Reply numerically in nM, unit not repeated.

INSERT INTO results (molecule, measure_unit, number) VALUES
  ('Cc1ccc(-n2cc(-c3cnn4c(=O)c(C5CC5)c(C)[nH]c34)cn2)nc1 [Example 27]', 'nM', 33.2),
  ('Cc1[nH]c2c(-n3cnc(-c4ccccn4)c3)cnn2c(=O)c1C(C)C [Example 46]', 'nM', 23.4);

Then there is this molecule:
Inquiry: Which measured IC50 value corresponds to O=c1c2c([nH]c3c(-c4cnn(-c5ccccn5)c4)cnn13)CCC2 [Example 42] ?
Reply text: 32.2

---

Study target: KDM5A (Homo sapiens, UniProt P29375)
Construct: Full length recombinant Flag tagged KDM5A protein was purified from Sf9 insect cells; Flag; made in house; host or cells: Sf9 insect cells
Test details: KDM5A Demethylase Assay (TR-FRET Assay-B)
Assay type: biochemical
Details: full length recombinant Flag tagged KDM5A, 2 nM, TrisCl pH 7.4, 3.0 μM α-ketoglutarate, read-out: B KDM5A HTRF (IC50)
Quantity: pIC50
Reminder that pIC50 is minus the log10 of a molar concentration.

Sample records with pIC50:
INSERT INTO results (compound, number) VALUES
  ('CCc1c(C)[nH]c2c(-c3cnn(-c4ncc(C)cn4)c3)cnn2c1=O [Example 2]', 7.79),
  ('Cc1ccnc(-n2cc(-c3cnn4c(=O)c(C5CC5)c(C)[nH]c34)cn2)n1 [Example 30]', 8.32),
  ('Cc1ccnc(-n2cc(-c3cnn4c(=O)c(C5CC5)c(C)[nH]c34)cn2)c1 [Example 28]', 7.87),
  ('Cc1c(C(C)C)[nH]c2c(-c3cnn(-c4ccccn4)c3)cnn2c1=O [Example 38]', 6.00),
  ('CCc1c(C)[nH]c2c(-c3cnn(-c4cc(N(C)C)ccn4)c3)cnn2c1=O [Example 16]', 6.39),
  ('Cc1[nH]c2c(-c3cnn(-c4ccc(CO)cn4)c3)cnn2c(=O)c1C1CC1 [Example 32]', 8.10),
  ('CCc1c(C)[nH]c2c(-c3cnn(-c4cc(C5CC5)ccn4)c3)cnn2c1=O [Example 9]', 7.78),
  ('COc1c(C)[nH]c2c(-c3cnn(-c4ccccn4)c3)cnn2c1=O [Example 40]', 7.00);

Inquiry: Which measured pIC50 value corresponds to Cc1cnc(-n2cc(-c3cnn4c(=O)c(C5CC5)c(C)[nH]c34)cn2)nc1 [Example 31] ?
Reply text: 7.31

Inquiry: Thanks! And CCc1c(C)[nH]c2c(-c3cnn(-c4cc(C(=O)O)ccn4)c3)cnn2c1=O [Example 10] ?
Reply text: 6.70

Inquiry: Thanks! And CCc1c(C)[nH]c2c(-c3cnn(C(=O)N(C)C)c3)cnn2c1=O [Example 34] ?
Reply text: 5.38

Inquiry: Thanks! And Cc1[nH]c2c(-c3cnn(-c4ccccn4)c3)cnn2c(=O)c1C(C)C [Example 20] ?
Reply text: 8.08

Inquiry: Thanks! And CCc1c(C)[nH]c2c(-c3cnn(-c4nccc(OC)n4)c3)cnn2c1=O [Example 7] ?
Reply text: 8.07

Inquiry: Thanks! And CCc1c(C)[nH]c2c(-c3cnn(C(=O)C(C)(C)C)c3)cnn2c1=O [Example 35] ?
Reply text: 6.27

Inquiry: Thanks! And CCc1c(C)[nH]c2c(-c3cnn(-c4cc(OC)ccn4)c3)cnn2c1=O [Example 15] ?
Reply text: 7.18

Inquiry: Thanks! And Cc1[nH]c2c(-c3cnn(-c4ccccn4)c3)cnn2c(=O)c1F [Example 62] ?
Reply text: 6.67

Inquiry: Thanks! And Cc1cc(=O)n2ncc(-n3cnc(-c4ccccn4)c3)c2[nH]1 [Example 49] ?
Reply text: 7.36

Inquiry: Thanks! And CCc1c(C)[nH]c2c(-c3cnn(C(C)=O)c3)cnn2c1=O [Example 33] ?
Reply text: 6.71

---

Study target: KDM5A (Homo sapiens, UniProt P29375)
Construct: Full length recombinant Flag tagged KDM5A protein was purified from Sf9 insect cells; Flag; made in house; host or cells: Sf9 insect cells
Test details: KDM5A Demethylase Assay (TR-FRET Assay-B)
Assay type: biochemical
Details: full length recombinant Flag tagged KDM5A, 2 nM, TrisCl pH 7.4, 3.0 μM α-ketoglutarate, read-out: B KDM5A HTRF (IC50)
Quantity: IC50 (nM)
Reply numerically in nM, unit not repeated.

Sample records with IC50:
INSERT INTO measurements (compound, quantity, measure_unit, number) VALUES
  ('Cc1[nH]c2c(-c3cnn(-c4ncccn4)c3)cnn2c(=O)c1C1CC1 [Example 29]', 'IC50', 'nM', 18.5),
  ('CCc1[nH]c2c(-c3cnn(-c4ccccn4)c3)cnn2c(=O)c1C [Example 37]', 'IC50', 'nM', 335),
  ('CCc1c(CO)[nH]c2c(-c3cnn(-c4ccccn4)c3)cnn2c1=O [Example 41]', 'IC50', 'nM', 4.1),
  ('Cc1[nH]c2c(-c3cnn(-c4ccccn4)c3)cnn2c(=O)c1C [Example 61]', 'IC50', 'nM', 66.1);

Then there is this compound:
Inquiry: Which measured IC50 value corresponds to CCc1c(C)[nH]c2c(-c3cnn(-c4nccc(N(C)C)n4)c3)cnn2c1=O [Example 4] ?
Reply text: 47

---

Study target: KDM5A (Homo sapiens, UniProt P29375)
Construct: Full length recombinant Flag tagged KDM5A protein was purified from Sf9 insect cells; Flag; made in house; host or cells: Sf9 insect cells
Test details: KDM5A Demethylase Assay (TR-FRET Assay-B)
Type: biochemical
Details: full length recombinant Flag tagged KDM5A, 2 nM, TrisCl pH 7.4, 3.0 μM α-ketoglutarate, read-out: B KDM5A HTRF (IC50)
This section presents compounds with their documented pIC50 values.
Reminder that pIC50 is minus the log10 of a molar concentration.

INSERT INTO assay_data (smiles_code, number) VALUES
  ('CCc1c(C)[nH]c2c(-c3cnn(-c4nccc(N5CCCC5)n4)c3)cnn2c1=O', 7.28),
  ('Cc1[nH]c2c(-c3cnn(-c4ccccn4)c3)cnn2c(=O)c1Cl', 7.22),
  ('CCc1[nH]c2c(-c3cnn(-c4ccccn4)c3)cnn2c(=O)c1CC', 6.77),
  ('CCc1c(C)[nH]c2c(-c3cnn(-c4cc(OCCN)ccn4)c3)cnn2c1=O', 8.01);

Then there is this compound:
Inquiry: Which measured pIC50 value corresponds to Cc1c(C2CC2)[nH]c2c(-c3cnn(-c4ccccn4)c3)cnn2c1=O ?
Reply text: 6.20
